# PROTOCOL DESCRIPTION: solvent given as SMILES
# CONDITION PARAMETERS: in CC#N
PROPERTY NAME: absorption maximum (nm)

SMILES REPR: CN(C)c1c2ccccc2cc2ccccc12
PROPERTY NAME: absorption maximum
VALUE OBSERVED: 386
--
SMILES REPR: CC(C)(C)Nc1oc(C=Cc2ccccc2)c(C(=O)OC(C)(C)C)c1C(=O)OC(C)(C)C
PROPERTY NAME: absorption maximum
VALUE OBSERVED: 384
--
SMILES REPR: COc1cccc(/C=C/C(=O)c2c(O)cc(C)oc2=O)c1
PROPERTY NAME: absorption maximum
VALUE OBSERVED: 373
--
SMILES REPR: COc1c2ccccc2c(OC)c2c1c1cc(F)ccc1n2C
PROPERTY NAME: absorption maximum
VALUE OBSERVED: 417
--
SMILES REPR: CN(C)c1ccc2nc(-c3ccc(C(=O)O)cc3)sc2c1
PROPERTY NAME: absorption maximum
VALUE OBSERVED: 390
--
SMILES REPR: COc1ccc(C2=[O+][B-](F)(F)OC(c3ccc4c(c3)Cc3ccccc3-4)=C2)cc1
PROPERTY NAME: absorption maximum
VALUE OBSERVED: 424
--
SMILES REPR: N#Cc1cc2ccc(O)cc2oc1=O
PROPERTY NAME: absorption maximum
VALUE OBSERVED: 352
--
SMILES REPR: O=c1c2cc(F)ccc2nc2n1[B-](F)(F)[n+]1ccccc1-2
PROPERTY NAME: absorption maximum
VALUE OBSERVED: 337
--
SMILES REPR: Cn1c(=O)cc(C(=O)c2ccccc2)c2sc(-c3ccc(N(c4ccccc4)c4ccccc4)cc3)cc21
PROPERTY NAME: absorption maximum
VALUE OBSERVED: 430
--
SMILES REPR: O=[N+]([O-])c1ccc(-c2nc3c(c4c2-c2ccccc2CC4)-c2ccccc2CC3)cc1
PROPERTY NAME: absorption maximum
VALUE OBSERVED: 345
--
SMILES REPR: CCCCN1C(=O)c2cccc3c(N(C)C)ccc(c23)C1=O
PROPERTY NAME: absorption maximum
VALUE OBSERVED: 416
